- Tested On: Recombinant TDO (Homo sapiens)
- Construct: His tag (C); made in house; host or cells: E. coli
- Assay Summary: TDO enzymatic assay
- Assay type: biochemical
- Measurement Setup: Table 1, 5-substituted imidazo[1,5-a]pyridines; 100 nM TDO, 0.5 mM L-tryptophan; read-out: Enzyme IC50 (nM) TDO
For each entry below, report its IC50 value.
Answers are plain numbers, in nM.

Past entries and their recorded results:
>>> measured("OC(CC1CCCCC1)c1cc(C(F)(F)F)cc2cncn12 (single isomer, unassigned) [Example A114a]")
2600
>>> measured("Clc1cc(CC2CCCCC2)n2cncc2c1")
73

For the next question, use this compound.
// map COc1ccc2cncn2c1C(O)C1CCCCC1 (stereo not drawn) to recorded IC50 (system: Recombinant TDO (Homo sapiens))
4100

====

For each entry below, report its EC50 value.
- Tested On: cellular IDO1 in HeLa cells (Homo sapiens)
- Construct: endogenous in cells; host or cells: HeLa cells (American Type Tissue Culture Collection), induced with human recombinant IFN-γ
- Assay Summary: HeLa cell-based IDO1 Kyn (kynurenine) production assay
- Measurement Setup: Table 2, 8-substituted imidazo[1,5-a]pyridines, IFN-γ 100 ng/mL, 48 hours
- Method: HeLa Cell-Based IDO1 Kyn (Kynurenine) Production Assay: The inhibitory activity of IDO1 inhibitors is determined by using a colorimetric reaction to measure Kyn generated from L-Trp (L-Tryptophon) oxidation by cellular IDO1 in HeLa cells after induction of IDO1 by IFN-γ. Hela cells were obtained from the American Type Tissue Culture Collection and recovered in 10% FBS-containing phenol red-free DMEM medium supplemented with 0.4 mM L-Trp. […]
Give bare numbers, in nM.

Past entries and their recorded results:
>>> measured("CC(C)c1ccn2cncc2c1C(O)[C@H]1CC[C@H](O)CC1 (single isomer, unassigned) [Example B121a]")
719
>>> measured("OC(c1c([C@H]2C[C@H]2F)ccn2cncc12)C1CCCCC1 (mixture of isomers) [Example B126b]")
676

For the next question, use this compound.
// map OC(CC1CCCCC1)c1c(Cl)ccn2cncc12 (stereo not drawn) to recorded EC50 (system: cellular IDO1 in HeLa cells (Homo sapiens))
876

====

- Tested On: cellular IDO1 in HeLa cells (Homo sapiens, UniProt P14902)
- Construct: endogenous in cells; host or cells: HeLa cells (American Type Tissue Culture Collection), induced with human recombinant IFN-γ
- Sequence (P14902 whole entry): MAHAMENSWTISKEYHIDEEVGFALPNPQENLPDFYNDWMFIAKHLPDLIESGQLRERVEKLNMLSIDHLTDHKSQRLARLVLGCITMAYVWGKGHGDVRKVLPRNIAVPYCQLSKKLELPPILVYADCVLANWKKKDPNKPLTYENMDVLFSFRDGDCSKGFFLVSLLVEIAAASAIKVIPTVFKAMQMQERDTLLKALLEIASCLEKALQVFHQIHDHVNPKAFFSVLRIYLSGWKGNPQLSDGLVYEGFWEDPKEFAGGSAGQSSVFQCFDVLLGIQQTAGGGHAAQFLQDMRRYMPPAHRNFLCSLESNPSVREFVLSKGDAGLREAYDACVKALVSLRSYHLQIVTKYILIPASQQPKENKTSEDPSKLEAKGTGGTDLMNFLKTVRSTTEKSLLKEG
- Assay Summary: HeLa cell-based IDO1 Kyn (kynurenine) production assay
- Measurement Setup: Table 1, 5-substituted imidazo[1,5-a]pyridines, IFN-γ 100 ng/mL, 48 hours
pEC50: −log10 of the molar value.
For each entry below, report its pEC50 value.

Past entries and their recorded results:
>>> measured("OC(CC1CCCCC1)c1cc(Cl)cc2cncn12 (single isomer, unassigned) [Example A102b]")
"< 5.00"
>>> measured("OC(CC1CCCCC1)c1c(I)ccc2cncn12 (single isomer, unassigned) [Example A124b]")
"< 5.00"
>>> measured("OC1CCC([C@@H](O)c2c(C3CC3)ccc3cncn23)CC1 (single isomer, unassigned) [Example A142c]")
"< 5.00"
>>> measured("OC(c1cc(C(F)(F)F)cc2cncn12)C1CCCCC1 (single isomer, unassigned) [Example A109b]")
"< 5.00"
>>> measured("OC1CCCC(C(O)c2c(C3CC3)ccc3cncn23)C1 (stereo not drawn) [Example A164b]")
6.65

For the next question, use this molecule.
Would you mind telling me what pEC50 value was observed for OC(CC1CCCCC1)c1ccc(Cl)c2cncn12 (stereo not drawn) [Example A025] ?
< 5.00

====

- Tested On: cellular IDO1 in HeLa cells (Homo sapiens, UniProt P14902)
- Construct: endogenous in cells; host or cells: HeLa cells (American Type Tissue Culture Collection), induced with human recombinant IFN-γ
- Assay Summary: HeLa cell-based IDO1 Kyn (kynurenine) production assay
- Measurement Setup: Table 2, 8-substituted imidazo[1,5-a]pyridines, IFN-γ 100 ng/mL, 48 hours
Measurement Label: EC50

>>> measured("OC(c1cc(Cl)cn2cncc12)C1CCCCC1 (centres unmarked)")
"> 10000 nM"
>>> measured("Cc1ccn2cncc2c1C(O)C1CCCCC1 (single isomer, unassigned) [Example B102a]")
"995 nM"
>>> measured("OC(c1c(C2CC2)ccn2cncc12)C1CC2C=CC1CC2 (centres unmarked)")
"754 nM"
>>> measured("CC(C)c1ccn2cncc2c1C(O)C1CCCCC1 (centres unmarked) [Example B106]")
"457 nM"
>>> measured("CC(C)c1ccn2cncc2c1C(O)[C@H]1CC[C@H](O)CC1 (single isomer, unassigned) [Example B121b]")
"> 10000 nM"
>>> measured("OC(c1c([C@H]2C[C@@H]2F)ccn2cncc12)C1CCCCC1 (single isomer, unassigned) [Example B128b]")
"> 10000 nM"
>>> measured("OC(c1c(C2CC2)ccn2cncc12)[C@H]1CC[C@@H](O)CC1 (single isomer, unassigned) [Example B119c]")
"> 10000 nM"

For the next question, use this compound.
Would you mind telling me what EC50 value was observed for CC(C)(C)OC(=O)NCC(=O)N1CCCC(C(O)c2c(C3CC3)ccn3cncc23)C1 (centres unmarked) ?
> 10000 nM

====

For each entry below, report its log10 of IC50 value.
- Tested On: Recombinant TDO (Homo sapiens, UniProt P48775)
- Construct: His tag (C); made in house; host or cells: E. coli
- Sequence (P48775 whole entry): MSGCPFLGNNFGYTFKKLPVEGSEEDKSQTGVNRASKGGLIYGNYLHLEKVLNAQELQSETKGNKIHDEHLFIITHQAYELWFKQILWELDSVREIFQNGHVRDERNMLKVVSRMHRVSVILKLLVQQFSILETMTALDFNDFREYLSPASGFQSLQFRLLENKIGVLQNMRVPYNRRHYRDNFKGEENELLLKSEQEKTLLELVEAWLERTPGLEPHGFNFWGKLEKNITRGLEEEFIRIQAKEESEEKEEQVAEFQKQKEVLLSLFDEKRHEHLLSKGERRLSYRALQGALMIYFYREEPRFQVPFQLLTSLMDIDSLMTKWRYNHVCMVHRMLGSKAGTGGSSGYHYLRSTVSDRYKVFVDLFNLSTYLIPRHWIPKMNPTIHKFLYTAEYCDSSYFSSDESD
- Assay Summary: TDO enzymatic assay
- Type: biochemical
- Measurement Setup: Table 1, 5-substituted imidazo[1,5-a]pyridines; 100 nM TDO, 0.5 mM L-tryptophan; read-out: Enzyme IC50 (nM) TDO
In plain terms, each number is the log10 of measured IC50 in nM.

Past entries and their recorded results:
>>> measured("OC(CC1CCCCC1)c1c(Cl)c(F)cc2cncn12 (stereo not shown)")
3.87
>>> measured("OC(c1cc(C(F)(F)F)cc2cncn12)C1CCCCCC1 (stereo not shown)")
2.51
>>> measured("OC(c1c(Cl)ccc2cncn12)C1CCCCC1 (single isomer, unassigned) [Example A116b]")
4.83

Can you give me log10 of IC50 for all of these, one by one?
1. OC(c1c(Cl)c(Br)cc2cncn12)C1CCCC1 (stereo not shown)
2. OC(c1c(F)c(Cl)cc2cncn12)C1CCCCC1 (stereo not shown)

[2.20, 2.28]

Can you give me log10 of IC50 for all of these, one by one?
1. OC(c1c(Cl)c(Cl)cc2cncn12)C1CCCCC1 (single isomer, unassigned) [Example A143b]
2. OC(c1ccc(F)c2cncn12)C1CCCCC1 (stereo not shown)

1. 4.15
2. 2.76
